Provide the reported EC50 of each item.
- System: Ustilago maydis
- run-description: Antifungal activity against Ustilago maydis assessed as inhibition of radial growth on potato dextrose
- Type: functional, organism-based
- settings: Mycosarcoma maydis
Enter your answer as a number in µg/mL; do not include the unit.

// query Could you share which EC50 value was measured for Clc1ccc([C@@H](COCc2ccccc2)Cn2cncn2)c(Cl)c1 ?
// result 0.09

// query // lookup EC50 for CC(C)=CCOCC(Cn1cncn1)c1ccc(Cl)cc1Cl (racemic)
// result 0.22

// query State the recorded EC50 for this entry: Clc1ccc(C(COCc2ccc(-c3ccccc3)cc2)Cn2cncn2)c(Cl)c1 (racemic)
// result 0.03

// query Fill in: EC50 of Clc1ccc(COCC(Cn2cncn2)c2ccc(Cl)cc2Cl)c(Cl)c1 (racemic) is ___
// result 0.09

// query I'd like to know its EC50. The compound in question is C=C(C)COCC(Cn1cncn1)c1ccc(Cl)cc1Cl (racemic)
// result 0.25

---

- Test system: Botrytis cinerea
- run-description: Antifungal activity against Botryotinia fuckelianaassessed as inhibition of radial growth on potato dextrose
- Format: functional, organism-based
Flag rule - EC50 less than 4 µg/mL flags 1; the remaining entries get 0.

// query EC50 under 4 µg/mL? Item: Clc1ccc(C(COCCCc2ccccc2)Cn2cncn2)c(Cl)c1 (racemic)
// result 1

// query Here's an entry: OCCCOCC(Cn1cncn1)c1ccc(Cl)cc1Cl (racemic) . Is its EC50 below 4 µg/mL?
// result 0

// query For this compound, is EC50 lower than 4 µg/mL? CC(C)=CCOCC(Cn1cncn1)c1ccc(Cl)cc1Cl (racemic)
// result 1

// query Here's an entry: N#CCCOCC(Cn1cncn1)c1ccc(Cl)cc1Cl (racemic) . Is its EC50 below 4 µg/mL?
// result 0

// query Bench note: check whether C=CCOC[C@@H](Cn1cncn1)c1ccc(Cl)cc1Cl shows EC50 below 4 µg/mL
// result 1

// query Identify whether the compound Clc1ccc([C@H](COCc2ccccc2)Cn2cncn2)c(Cl)c1 records EC50 below 4 µg/mL.
// result 1

// query Hello, is EC50 of the following compound strictly smaller than 4 µg/mL? Clc1ccc(C(COC/C=C/c2ccccc2)Cn2cncn2)c(Cl)c1 (racemic)
// result 1

// query Does the reported EC50 of the following compound sit strictly below 4 µg/mL? Clc1ccc(C(COCc2ccc(OCc3ccccc3)cc2)Cn2cncn2)c(Cl)c1 (racemic)
// result 1

// query In plain terms, does Clc1ccc([C@@H](COCc2ccccc2)Cn2cncn2)c(Cl)c1 come in under 4 µg/mL for EC50?
// result 1

// query # check: EC50 < 4 µg/mL for Clc1ccc(C(COCc2ccc3ccccc3c2)Cn2cncn2)c(Cl)c1 (racemic)
// result 1

// query API: query returns whether the compound falls strictly under 4 µg/mL in EC50. Query: C=C(Cl)COCC(Cn1cncn1)c1ccc(Cl)cc1Cl (racemic)
// result 1

// query Determine whether this compound shows EC50 lower than 4 µg/mL (ties excluded): Clc1ccc(C(COCc2ccccc2)Cn2cncn2)c(Cl)c1 (racemic)
// result 1

// query Does CC(C)(C)c1ccc(COCC(Cn2cncn2)c2ccc(Cl)cc2Cl)cc1 (racemic) have EC50 strictly under 4 µg/mL?
// result 1

// query Please let me know if C=C(C)COCC(Cn1cncn1)c1ccc(Cl)cc1Cl (racemic) shows EC50 below 4 µg/mL.
// result 1

// query Would you kindly verify if EC50 of Clc1ccc(C(COCc2cccs2)Cn2cncn2)c(Cl)c1 (racemic) is strictly less than 4 µg/mL?
// result 1

// query Just wondering, is EC50 of C=C(Cn1cncn1)c1ccc(Cl)cc1Cl below 4 µg/mL?
// result 0

// query Lab note: confirm whether the reported EC50 for this compound is below 4 µg/mL, equality not counting. compound: FC(F)C(F)(F)OCC(Cn1cncn1)c1ccc(Cl)cc1Cl (configuration not stated) [TETRACONAZOLE]
// result 1

// query Just wondering, is EC50 of Clc1ccc(C(COCc2ccc(OCc3cccc(OCc4ccccc4)c3)cc2)Cn2cncn2)c(Cl)c1 (racemic) below 4 µg/mL?
// result 0

// query Decide: EC50 of Clc1ccc(C(COCc2ccc(-c3ccccc3)cc2)Cn2cncn2)c(Cl)c1 (racemic) strictly below 4 µg/mL?
// result 1

// query For this compound, is EC50 lower than 4 µg/mL? Clc1ccc(C(COCc2ccc(OCc3ccc(OCc4ccccc4)cc3)cc2)Cn2cncn2)c(Cl)c1 (racemic)
// result 0

// query EC50 strictly < 4 µg/mL for this compound? Clc1ccc(C(COCc2cccc(Oc3ccccc3)c2)Cn2cncn2)c(Cl)c1 (racemic)
// result 0

// query Is EC50 strictly under 4 µg/mL for the entry C#CCOCC(Cn1cncn1)c1ccc(Cl)cc1Cl (configuration not stated) ?
// result 1

// query # TODO verify EC50 < 4 µg/mL strictly for this compound: O=[N+]([O-])c1ccc(COCC(Cn2cncn2)c2ccc(Cl)cc2Cl)cc1 (racemic)
// result 1

// query Check if EC50 falls below 4 µg/mL for C=CCOC[C@H](Cn1cncn1)c1ccc(Cl)cc1Cl .
// result 1

// query Is it true that EC50 reported for COc1ccc(COCC(Cn2cncn2)c2ccc(Cl)cc2Cl)cc1 (racemic) is less than 4 µg/mL?
// result 1

// query Hello, is EC50 of the following compound strictly smaller than 4 µg/mL? Clc1ccc(COCC(Cn2cncn2)c2ccc(Cl)cc2Cl)c(Cl)c1 (racemic)
// result 1

// query Take the compound C=CCOCC(Cn1cncn1)c1ccc(Cl)cc1Cl (racemic) and say whether its EC50 is less than 4 µg/mL.
// result 1
